Data origin, for the record: patent US20130280169A1

# procedure.summary: Excitation and fluorescence wavelength by FL4500 fluorescence spectrophotometer
# test.settings: aqueous solution, 10 mg/mL DMSO solution diluted 500-fold with distilled water (Table 2)
Mark each entry MET if its Stokes shift λem − λex sits below 80, and NOT MET for all others.

Exam item: # strict comparison: is reported Stokes shift λem − λex < 80? input = CCN(CC)c1ccc2cc(-c3nc4ccccc4[nH]3)c(=N)oc2c1
Marked response: MET

Exam item: What do you get for CCN(CC)c1ccc2cc(-c3nc4ccc(C)cc4o3)c(=O)oc2c1 ?
Marked response: MET

Exam item: Try this compound too: Cc1ccc2oc(=O)c(-c3nc4ccccc4[nH]3)cc2c1
Marked response: NOT MET

Exam item: Record: CCN(CC)c1ccc2cc(-c3nc4cc(Cl)ccc4o3)c(=O)oc2c1
Marked response: MET

Exam item: Can you handle O=c1oc2ccc3ccccc3c2cc1-c1nc2ccccc2[nH]1 next?
Marked response: NOT MET

Exam item: Same lookup for COc1ccc2cc(-c3nc4ccccc4[nH]3)c(=O)oc2c1 , please.
Marked response: NOT MET

Exam item: Do the same for COc1ccc2cc(-c3nc4ccccc4[nH]3)c(=N)oc2c1 please
Marked response: NOT MET

Exam item: // repeat for CCCN(CCC)c1ccc2cc(-c3nc4ccccc4[nH]3)c(=O)oc2c1 and report
Marked response: MET

Exam item: Next entry: COc1cccc2cc(-c3nc4ccccc4[nH]3)c(=O)oc12
Marked response: NOT MET

Exam item: What about this compound? CCN(CC)c1ccc2cc(-c3nc4ccccc4s3)c(=O)oc2c1
Marked response: NOT MET
